Tested on: MES-SA human uterine sarcoma cells
measuredMetric: IC50 (nM)
Supply the numeric figure in nM, leaving out any unit text.

Q: I'm curious: which IC50 was measured for CC[C@]1(O)C[C@@H]2CN(CCc3c([nH]c4ccccc34)[C@@](C(=O)OC)(c3cc4c(cc3OC)N(C)[C@H]3[C@@](O)(C(=O)OC)[C@H](OC(C)=O)[C@]5(CC)C=CCN6CC[C@]43[C@@H]65)C2)C1 tested on MES-SA human uterine sarcoma cells?
Result: 7

* * *

Tested on: DX5 human uterine sarcoma cells (MDR-positive)
measuredMetric: pIC50
Scale explanation: pIC50 corresponds to minus log10 of a concentration expressed in moles per litre.

Q: // lookup pIC50 for CC[C@]1(O)C[C@@H]2CN(CCc3c([nH]c4ccccc34)[C@@](C(=O)OC)(c3cc4c(cc3OC)N(C)[C@H]3[C@@](O)(C(=O)OC)[C@H](OC(C)=O)[C@]5(CC)C=CCN6CC[C@]43[C@@H]65)C2)C1
Result: 6.94

Taken from patent US5456908A.
